src = paper PMC9320654

Assay: Metabolic stability in cryopreserved hepatocytes, monkey
Format: in vitro ADME, cynomolgus monkey
Conditions: cynomolgus monkey, cryopreserved hepatocytes in suspension; scaled from monkey hepatocyte CLint; read-out: CLint (liver)
experimental endpoint: CLint scaled at 1 μM (mL/min/kg)
Hi! Could you send only the number? It should be in mL/min/kg, unit omitted.

If you can, please state the reported CLint scaled at 1 μM value of `CCOc1ccc2ccc(=O)oc2c1` .
367

###

Assay: Metabolic stability in liver microsomes, MLM
Format: in vitro ADME, CD-1 mouse
Conditions: CD-1, mouse, liver microsomes; MLM; read-out: CLint(mic)
experimental endpoint: microsomal CLint at 1 μM (µL/min/mg)
Hi! Could you send only the number? It should be in µL/min/mg, unit omitted.

If you can, please state the reported microsomal CLint at 1 μM value of C[C@]12CC[C@H]3[C@@H](CCC4=CC(=O)CC[C@@]43C)[C@@H]1CC[C@@H]2O [Testosterone] .
359

###

Experiment: Metabolic stability in liver microsomes, MLM
Type: in vitro ADME, CD-1 mouse
Conditions: CD-1, mouse, liver microsomes; scaled from MLM CLint(mic)
experimental endpoint: CLint scaled at 1 μM (L/h/kg)
Hi! Could you send only the number? It should be in L/h/kg, unit omitted.

If you can, please state the reported CLint scaled at 1 μM value of C[C@]12CC[C@H]3[C@@H](CCC4=CC(=O)CC[C@@]43C)[C@@H]1CC[C@@H]2O [Testosterone] .
85.3

###

Experiment: Plasma protein binding (HTdialysis equilibrium dialysis), rat plasma
Format: in vitro ADME
Settings: Sprague Dawley, pH 7.4, read-out: Fu (%), unbound fraction
experimental endpoint: fraction unbound at 5 h

If you can, please state the reported fraction unbound at 5 h value of CC(=O)CC(c1ccccc1)c1c(O)c2ccccc2oc1=O (stereo not shown) .
0.0052

###

Assay: Plasma stability, monkey plasma
Format: in vitro ADME
Conditions: cynomolgus, 37 °C, n = 2
Where a name gives a salt, the structure may show the parent alone.
experimental endpoint: half-life at 2 μM (min)
Hi! Could you send only the number? It should be in min, unit omitted.

If you can, please state the reported half-life at 2 μM value of CCN(CC)CCOC(=O)c1ccc(N)cc1 [Procaine Hydrochloride] .
4.4

###

Test: Plasma stability, human plasma
Format: in vitro ADME
Details: 120 min, read-out: Remaining % (T = 120 min)
experimental endpoint: remaining at 2 h, 2 μM (%)
Hi! Could you send only the number? It should be in %, unit omitted.

If you can, please state the reported remaining at 2 h, 2 μM value of CC(C)[N+](C)(CCOC(=O)C1c2ccccc2Oc2ccccc21)C(C)C [Propantheline bromide] .
0

###

Assay: Metabolic stability in cryopreserved hepatocytes, rat
Format: in vitro ADME, Sprague Dawley rat
Conditions: Sprague Dawley, cryopreserved hepatocytes (suspension); rat hepatocytes, 0.5 × 10^6 cells/mL, 1 μM; n = 2
experimental endpoint: half-life at 1 μM (min)
Hi! Could you send only the number? It should be in min, unit omitted.

If you can, please state the reported half-life at 1 μM value of `CCOc1ccc2ccc(=O)oc2c1` .
18.2

###

Experiment: Metabolic stability in cryopreserved hepatocytes, dog
Assay type: in vitro ADME, beagle dog
Conditions: beagle, cryopreserved hepatocytes in suspension; scaled from dog hepatocyte CLint; read-out: CLint (liver)
Method: Hepatocyte metabolic stability was evaluated in cryopreserved hepatocytes from CD-1 mice (Lot#: EXR), Sprague Dawley rats (Lot#: OSQ), beagle dogs (Lot#: ZMB), cynomolgus monkeys (Lot#: KMS), and human donors (Lot#: AEL) obtained from Bioreclamation IVT, LLC (Shanghai, China). […] Samples were withdrawn from the reaction mixture at 0, 15, 30, 60, and 90 min and were quenched with stop solution (acetonitrile containing 200 ng/mL tolbutamide and 200 ng/mL labetalol as internal standards). […]
experimental endpoint: CLint scaled at 1 μM

If you can, please state the reported CLint scaled at 1 μM value of CCOc1ccc2ccc(=O)oc2c1 [7-Ethoxycoumarin] .
1760 mL/min/kg

###

Assay: Metabolic stability in liver microsomes, DLM
Type: in vitro ADME, beagle dog
Details: beagle, dog, microsomes; scaled from DLM CLint(mic)
experimental endpoint: CLint scaled at 1 μM (mL/min/kg)
Hi! Could you send only the number? It should be in mL/min/kg, unit omitted.

If you can, please state the reported CLint scaled at 1 μM value of `C[C@]12CC[C@H]3[C@@H](CCC4=CC(=O)CC[C@@]43C)[C@@H]1CC[C@@H]2O` .
99.6

###

Assay: Metabolic stability in liver microsomes, CLM
Format: in vitro ADME, cynomolgus monkey
Settings: cynomolgus monkey, liver microsomes; CLM, 1 μM, NADPH; n = 2
experimental endpoint: half-life at 1 μM

If you can, please state the reported half-life at 1 μM value of C[C@]12CC[C@H]3[C@@H](CCC4=CC(=O)CC[C@@]43C)[C@@H]1CC[C@@H]2O [Testosterone] .
5 min

###

Assay: Plasma stability, human plasma
Format: in vitro ADME
Conditions: 37 °C, n = 2
experimental endpoint: half-life at 2 μM
The reply should consist of the numeric value with the unit placed after it.

If you can, please state the reported half-life at 2 μM value of CC(C)[N+](C)(CCOC(=O)C1c2ccccc2Oc2ccccc21)C(C)C [Propantheline bromide] .
10.3 min

###

Assay: Metabolic stability in cryopreserved hepatocytes, human
Assay type: in vitro ADME
Conditions: cryopreserved hepatocytes in suspension; human hepatocytes, 90 min; read-out: Remaining % (T = 90 min)
experimental endpoint: remaining at 1.5 h, 1 μM

If you can, please state the reported remaining at 1.5 h, 1 μM value of `CCOc1ccc2ccc(=O)oc2c1` .
21.9%

###

Experiment: Plasma stability, dog plasma
Type: in vitro ADME
Settings: beagle, 120 min, read-out: Remaining % (T = 120 min)
experimental endpoint: remaining at 2 h, 2 μM (%)
Hi! Could you send only the number? It should be in %, unit omitted.

If you can, please state the reported remaining at 2 h, 2 μM value of `CC(=O)Oc1ccc(C(c2ccc(OC(C)=O)cc2)c2ccccn2)cc1` .
0

###

Assay: Plasma protein binding (HTdialysis equilibrium dialysis), dog plasma
Type: in vitro ADME
Details: beagle, pH 7.4, read-out: Fu (%), unbound fraction
experimental endpoint: fraction unbound at 5 h

If you can, please state the reported fraction unbound at 5 h value of CC(=O)CC(c1ccccc1)c1c(O)c2ccccc2oc1=O (stereo not shown) .
0.0246

###

Test: Metabolic stability in cryopreserved hepatocytes, mouse
Type: in vitro ADME, CD-1 mouse
Conditions: CD-1, cryopreserved hepatocytes (suspension); mouse hepatocytes, 0.5 × 10^6 cells/mL, 1 μM; n = 2
experimental endpoint: half-life at 1 μM

If you can, please state the reported half-life at 1 μM value of `CCOc1ccc2ccc(=O)oc2c1` .
< 7.5 min

###

Assay: Metabolic stability in cryopreserved hepatocytes, dog
Format: in vitro ADME, beagle dog
Conditions: beagle, cryopreserved hepatocytes in suspension; dog hepatocytes, 0.5 × 10^6 cells/mL, 1 μM; n = 2
experimental endpoint: half-life at 1 μM (min)
Hi! Could you send only the number? It should be in min, unit omitted.

If you can, please state the reported half-life at 1 μM value of `CCOc1ccc2ccc(=O)oc2c1` .
5.4

###

Assay: Metabolic stability in cryopreserved hepatocytes, rat
Assay type: in vitro ADME, Sprague Dawley rat
Conditions: Sprague Dawley, cryopreserved hepatocytes in suspension; rat hepatocytes, 90 min; read-out: Remaining % (T = 90 min)
experimental endpoint: remaining at 1.5 h, 1 μM (%)
Hi! Could you send only the number? It should be in %, unit omitted.

If you can, please state the reported remaining at 1.5 h, 1 μM value of `CCOc1ccc2ccc(=O)oc2c1` .
2.1

###

Experiment: Plasma stability, mouse plasma
Format: in vitro ADME
Details: CD-1, 37 °C, n = 2
experimental endpoint: half-life at 2 μM (min)
Hi! Could you send only the number? It should be in min, unit omitted.

If you can, please state the reported half-life at 2 μM value of CC(C)[N+](C)(CCOC(=O)C1c2ccccc2Oc2ccccc21)C(C)C [Propantheline bromide] .
36.6

###

Experiment: Plasma stability, monkey plasma
Type: in vitro ADME
Details: cynomolgus, 120 min, read-out: Remaining % (T = 120 min)
Where a name gives a salt, the structure may show the parent alone.
experimental endpoint: remaining at 2 h, 2 μM (%)
Hi! Could you send only the number? It should be in %, unit omitted.

If you can, please state the reported remaining at 2 h, 2 μM value of CCN(CC)CCOC(=O)c1ccc(N)cc1 [Procaine Hydrochloride] .
0

###

Test: Metabolic stability in liver microsomes, CLM
Type: in vitro ADME, cynomolgus monkey
Conditions: cynomolgus monkey, liver microsomes; scaled from CLM CLint(mic)
experimental endpoint: CLint scaled at 1 μM (mL/min/kg)
Hi! Could you send only the number? It should be in mL/min/kg, unit omitted.

If you can, please state the reported CLint scaled at 1 μM value of `C[C@]12CC[C@H]3[C@@H](CCC4=CC(=O)CC[C@@]43C)[C@@H]1CC[C@@H]2O` .
374
